molecular target: Pyruvate kinase PKM (Homo sapiens, UniProt P14618); experiment: Activation of recombinant human PKM2 using pyruvate as substrate measured for 20 mins in presence of beta-NADH by LDH-coupled assay
Sequence (P14618 whole entry): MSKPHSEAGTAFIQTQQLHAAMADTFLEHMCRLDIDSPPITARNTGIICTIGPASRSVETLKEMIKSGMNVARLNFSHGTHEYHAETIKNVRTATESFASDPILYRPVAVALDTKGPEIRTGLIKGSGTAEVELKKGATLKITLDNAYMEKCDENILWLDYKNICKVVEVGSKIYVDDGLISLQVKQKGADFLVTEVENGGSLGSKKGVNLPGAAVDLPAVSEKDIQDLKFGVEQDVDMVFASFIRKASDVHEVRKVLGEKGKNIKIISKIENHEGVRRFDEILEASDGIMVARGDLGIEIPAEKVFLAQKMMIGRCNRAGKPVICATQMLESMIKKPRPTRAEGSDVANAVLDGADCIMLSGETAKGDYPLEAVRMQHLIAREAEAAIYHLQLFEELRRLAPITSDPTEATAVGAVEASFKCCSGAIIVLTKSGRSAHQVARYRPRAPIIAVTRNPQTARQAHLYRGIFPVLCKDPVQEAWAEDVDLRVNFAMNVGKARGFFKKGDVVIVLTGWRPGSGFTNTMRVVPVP
measured_parameter: EC50 (µM)

# smiles_data, target_entity, EC50 [µM]
measured = [
    ("Cc1cc(C)c(S(=O)(=O)N2CCN(CC(=O)c3cnc4ccccn34)CC2)c(C)c1", "Pyruvate kinase PKM (Homo sapiens, UniProt P14618)", 0.181),
    ("O=C(CN1CCN(S(=O)(=O)c2cccc(Br)c2)CC1)c1cnc2ccccn12", "Pyruvate kinase PKM (Homo sapiens, UniProt P14618)", 0.606),
    ("N#Cc1ccccc1S(=O)(=O)N1CCN(CC(=O)c2cnc3ccccn23)CC1", "Pyruvate kinase PKM (Homo sapiens, UniProt P14618)", 0.147),
    ("COc1ccc(Br)cc1S(=O)(=O)N1CCN(CC(=O)c2cnc3ccccn23)CC1", "Pyruvate kinase PKM (Homo sapiens, UniProt P14618)", 0.329),
    ("O=C(CN1CCN(S(=O)(=O)c2cccc(Br)c2)CC1)c1cnc2ncccn12", "Pyruvate kinase PKM (Homo sapiens, UniProt P14618)", 0.634),
]

(a) O=C(CN1CCN(S(=O)(=O)c2cccs2)CC1)c1cnc2ccccn12
(b) O=C(CN1CCN(S(=O)(=O)c2ccc(C(F)(F)F)cc2)CC1)c1cnc2ncccn12
Prompt: Please compare: a and b . Report which one has the smaller EC50 value. Answer = label.
Response: a
(a: 0.134 µM, b: 0.211 µM)

(A) O=C(CN1CCN(S(=O)(=O)c2ccccc2)CC1)c1cnc2ccccn12
(B) O=C(CN1CCN(S(=O)(=O)C2CCCCC2)CC1)c1cnc2ccccn12
(C) O=C(CN1CCN(S(=O)(=O)C2CC2)CC1)c1cnc2ncccn12
(D) O=C(CN1CCN(S(=O)(=O)c2ccc(F)cc2)CC1)c1cnc2ccccn12
Prompt: Please list these in order of increasing EC50. Thank you! Response field: labels, in requested order.
Response: C, A, D, B

(1) O=C(CN1CCN(S(=O)(=O)c2ccc([N+](=O)[O-])cc2)CC1)c1cnc2ccccn12
(2) O=C(CN1CCN(S(=O)(=O)c2ccc(F)cc2Cl)CC1)c1cnc2ccccn12
(3) Cc1ccc(S(=O)(=O)N2CCN(CC(=O)c3cnc4ncccn34)CC2)cc1
Prompt: Sort the compounds on EC50; start with the lowest figure. List each label, following the requested order.
Response: 3, 2, 1

---

system: A549; assay: Antiproliferative activity against human A549 cells incubated for 48 hrs by Alamar blue staining based assay; details: A549, 48 h
pIC50: −log10 of the molar value.
measured_parameter: pIC50

# compound, pIC50
records = [
    ("O=C(CN1CCN(S(=O)(=O)C2CCCCC2)CC1)c1cnc2ccccn12", 5.78),
    ("O=C(CN1CCN(S(=O)(=O)c2cccc(Br)c2)CC1)c1cnc2ccccn12", 5.78),
    ("O=C(CN1CCN(S(=O)(=O)c2ccccc2)CC1)c1cnc2ccccn12", 5.77),
    ("O=C(CN1CCN(S(=O)(=O)c2cccc(Br)c2)CC1)c1cnc2ncccn12", 5.94),
    ("O=C(CN1CCN(S(=O)(=O)c2ccc(F)cc2Cl)CC1)c1cnc2ncccn12", 5.76),
    ("N#Cc1ccccc1S(=O)(=O)N1CCN(CC(=O)c2cnc3ccccn23)CC1", 5.82),
    ("O=C(CN1CCN(S(=O)(=O)c2ccc(C(F)(F)F)cc2)CC1)c1cnc2ccccn12", 5.89),
    ("O=C(CN1CCN(S(=O)(=O)c2cc(F)ccc2F)CC1)c1cnc2ncccn12", 5.90),
    ("O=C(CN1CCN(S(=O)(=O)c2cccs2)CC1)c1cnc2ccccn12", 5.94),
    ("COc1cccc2c1C(=O)c1c(O)c3c(c(O)c1C2=O)C[C@@](O)(C(=O)CO)C[C@@H]3O[C@H]1C[C@H](N)[C@H](O)[C@H](C)O1 [DOXORUBICIN]", 5.79),
    ("O=C(CN1CCN(S(=O)(=O)c2ccc(C(F)(F)F)cc2)CC1)c1cnc2ncccn12", 5.91),
    ("O=C(CN1CCN(S(=O)(=O)c2ccc([N+](=O)[O-])cc2)CC1)c1cnc2ccccn12", 5.84),
    ("O=C(CN1CCN(S(=O)(=O)c2ccc(F)cc2)CC1)c1cnc2ccccn12", 5.77),
    ("Cc1cc(C)c(S(=O)(=O)N2CCN(CC(=O)c3cnc4ccccn34)CC2)c(C)c1", 5.77),
    ("O=C(CN1CCN(S(=O)(=O)C2CC2)CC1)c1cnc2ncccn12", 5.75),
]

---

target: Pyruvate kinase PKM (Homo sapiens); test: Activation of recombinant human PKM2 using pyruvate as substrate measured for 20 mins in presence of beta-NADH by LDH-coupled assay
measured_parameter: EC50 (nM)

Solved cases (2 shown):
# smiles_data, EC50 (nM)
rows = [
    ("O=C(CN1CCN(S(=O)(=O)c2ccc(F)cc2Cl)CC1)c1cnc2ncccn12", 612),
    ("O=C(CN1CCN(S(=O)(=O)c2ccc(C(F)(F)F)cc2)CC1)c1cnc2ccccn12", 550),
]

(1) COc1ccc(S(=O)(=O)N2CCN(CC(=O)c3cnc4ccccn34)CC2)cc1
(2) O=C(CN1CCN(S(=O)(=O)c2cc(F)ccc2F)CC1)c1cnc2ncccn12
(3) COc1ccc(-c2ccc(S(=O)(=O)N3CCN(CC(=O)c4cnc5ncccn45)CC3)cc2)cc1
Prompt: Rank the 3 compounds: largest EC50 first, smallest last. Thanks in advance for listing the labels in the requested order.
Response: 2, 3, 1
(2: 648 nM, 3: 435 nM, 1: 42 nM)
